# STUDY_TARGET: Serine/threonine-protein kinase mTOR (Homo sapiens)
# ASSAY_SUMMARY: binders of mTOR FRB domain, biophysical, NMR (AID 1648)
# MEASUREMENT_SETUP: NMR binding to FRB domain, chemical shift
The source made the active and inactive calls. The rule behind the calls is not given here.
Give measured Kd for each item. Keep answers brief.

Would you mind telling me what Kd value was observed for CC(=O)OC1CCC2(C)C3CC(=O)C4(C)C(CC5OC6(CCC(C)CO6)[C@@H](C)C54)C3CC[C@H]2C1 (stereo partly drawn) ? > 4 mM (inactive)

Would you mind telling me what Kd value was observed for Cc1ccccc1NC(=O)CC1SC(N)=NC1=O (stereo not drawn) ? > 4 mM (inactive)

Would you mind telling me what Kd value was observed for O=C1CC(=O)N2N=C(c3ccccc3)SC2=N1 ? > 4 mM (inactive)

* * *

Give measured Kd for each item. Keep answers brief.
# STUDY_TARGET: Serine/threonine-protein kinase mTOR (Homo sapiens)
# ASSAY_SUMMARY: binders of mTOR FRB domain, biophysical, NMR (AID 1648)
# MEASUREMENT_SETUP: NMR binding to FRB domain, chemical shift
Calls of active or inactive are those of the source. The rule behind the calls is not given here.

Would you mind telling me what Kd value was observed for C=C1C(=O)OC2CC1C(OC(C)=O)C/C(C)=C/CC/C(C)=C/CC[C@]2(C)O (stereo partly drawn) ? > 4 mM (inactive)

Would you mind telling me what Kd value was observed for CNC(=O)N1CCN(C(=O)NC)CC1 ? > 4 mM (inactive)

Would you mind telling me what Kd value was observed for S=C(Nc1ccc2nccnc2c1)N1CCOCC1 ? > 4 mM (inactive)

* * *

# STUDY_TARGET: Serine/threonine-protein kinase mTOR (Homo sapiens)
# ASSAY_SUMMARY: binders of mTOR FRB domain, biophysical, NMR (AID 1648)
# MEASUREMENT_SETUP: NMR binding to FRB domain, chemical shift
Activity calls are given as the source filed them. The rule behind the calls is not given here.
MEASURED_PROPERTY: Kd

Would you mind telling me what Kd value was observed for CS(=O)(=O)N1CCN(C(=O)Cc2cccs2)CC1 ? > 4 mM (inactive)

Would you mind telling me what Kd value was observed for CCC(=O)NC(=S)Nc1ccc(N2CCOCC2)cc1 ? > 4 mM (inactive)

Would you mind telling me what Kd value was observed for CC(=O)c1cc(C(N)=O)c(=S)[nH]c1C ? > 4 mM (inactive)
